Listed compounds paired with reported IC50
- Test system: COLO 205
- ASSAY DETAILS: Cytotoxicity against human COLO205 cells assessed as reduction in cell viability after 24 hrs by MTT assay
- Assay type: functional, cell-based
- MEASUREMENT CONDITIONS: COLO 205, 24 h
ASSAY ENDPOINT: IC50 (µg/mL)

>>> print(df.to_string())
                                   compound  assay_endpoint  endpoint_result
0  COc1cc2nc(N3CCCC3)nc(NS(=O)(=O)c3ccc(C)cc3)c2cc1OC            IC50             24.1
1  COc1cc2nc(Cl)nc(NS(=O)(=O)c3ccc(C)cc3)c2cc1OC            IC50             91.3
2  COc1cc2nc(N3CCCC3)nc(NS(=O)(=O)c3cccc(C(F)(F)F)c3)c2cc1OC            IC50               78
3  COc1ccc(S(=O)(=O)Nc2nc(Cl)nc3cc(OC)c(OC)cc23)cc1C            IC50               57
4  COc1cc2nc(N3CCOCC3)nc(NS(=O)(=O)c3ccc(C)cc3)c2cc1OC            IC50             44.2
5  COc1cc2nc(Cl)nc(NS(=O)(=O)c3cccc(C(F)(F)F)c3)c2cc1OC            IC50               99
6  COc1cc2nc(Cl)nc(NS(=O)(=O)c3ccccc3)c2cc1OC            IC50               19
7  COc1cc2nc(Cl)nc(NS(=O)(=O)c3ccc(C)cc3C)c2cc1OC            IC50               49
8  COc1cc2nc(N3CCOCC3)nc(NS(=O)(=O)c3cccc(C(F)(F)F)c3)c2cc1OC            IC50             61.8

----------
- Test system: DU-145
- ASSAY DETAILS: Cytotoxicity against human DU145 cells assessed as reduction in cell viability after 24 hrs by MTT assay
- Assay type: functional, cell-based
- MEASUREMENT CONDITIONS: DU-145, 24 h
IC50 strictly under 20 µg/mL means Condition met; at 20 µg/mL or over means Condition not met.

                                   compound  assay_system         class_name
0  COc1cc2nc(N3CCOCC3)nc(NS(=O)(=O)c3ccc(C)cc3)c2cc1OC        DU-145  Condition not met
1  COc1cc2nc(N3CCCC3)nc(NS(=O)(=O)c3cccc(C(F)(F)F)c3)c2cc1OC        DU-145  Condition not met
2  COc1cc2nc(N3CCCC3)nc(NS(=O)(=O)C3CC3)c2cc1OC        DU-145      Condition met
3  COc1cc2nc(N3CCOCC3)nc(NS(=O)(=O)C3CC3)c2cc1OC        DU-145  Condition not met
4  COc1cc2nc(N3CCOCC3)nc(NS(=O)(=O)c3cccc(C(F)(F)F)c3)c2cc1OC        DU-145  Condition not met
5  COc1cc2nc(Cl)nc(NS(=O)(=O)c3ccc(C)cc3)c2cc1OC        DU-145  Condition not met
6  COc1ccc(S(=O)(=O)Nc2nc(Cl)nc3cc(OC)c(OC)cc23)cc1C        DU-145  Condition not met
7  COc1cc2nc(Cl)nc(NS(=O)(=O)c3cccc(C(F)(F)F)c3)c2cc1OC        DU-145  Condition not met
8  COc1cc2nc(Cl)nc(NS(=O)(=O)c3ccccc3)c2cc1OC        DU-145      Condition met
9  COc1cc2nc(N3CCCC3)nc(NS(=O)(=O)c3ccc(C)cc3)c2cc1OC        DU-145      Condition met

Values were extracted from ChEMBL document CHEMBL4014300.
